// data source = the supplement of paper PMC4466140

# test-target: AgAbp1
# assay-text: SPOT peptide array binding signal intensity (averaged, normalized) (arbitrary units (background-subtracted, floor 0; scale differs between SH3 domains)); higher = stronger binding of the SH3 domain to the peptide
We use 100 as the dividing line for SPOT peptide array binding signal intensity: on or above the line is TRUE, below is FALSE.

In plain terms: is recorded SPOT peptide array binding signal intensity at least 100 for LKPPIGRPPKFPKSP ?
TRUE

In plain terms: is recorded SPOT peptide array binding signal intensity at least 100 for PPPPPPPPPPLPQSL ?
FALSE

In plain terms: is recorded SPOT peptide array binding signal intensity at least 100 for IKKRNKIRLPSGSPE ?
TRUE

In plain terms: is recorded SPOT peptide array binding signal intensity at least 100 for PKRRAPPPVPKKPSS ?
TRUE

In plain terms: is recorded SPOT peptide array binding signal intensity at least 100 for RPVPRRPSQPLNTLS ?
TRUE

In plain terms: is recorded SPOT peptide array binding signal intensity at least 100 for DRIRMFIRFPKFLLE ?
FALSE

In plain terms: is recorded SPOT peptide array binding signal intensity at least 100 for NMLSRPRLAKLPSIR ?
TRUE
